target: Farnesyl pyrophosphate synthase (Homo sapiens); assay: Inhibition of human FPPS expressed in Escherichia coli BL21 (DE3) at 1 uM preincubated for 10 mins in presence compound relative to control
measured-parameter: inhibition (%)

{"structure-smiles-string": "COc1ccc(C(=O)Nc2cccc(-c3nc(NC(P(=O)(O)O)P(=O)(O)O)c4ccsc4n3)c2)cc1Br", "tgt": "Farnesyl pyrophosphate synthase (Homo sapiens)", "recorded-measurement": 40}
{"structure-smiles-string": "CO[C@H](C(=O)Nc1cccc(-c2nc(NC(P(=O)(O)O)P(=O)(O)O)c3ccsc3n2)c1)c1ccccc1", "tgt": "Farnesyl pyrophosphate synthase (Homo sapiens)", "recorded-measurement": 55}
{"structure-smiles-string": "Cc1ccc(S(=O)(=O)Nc2cccc(-c3nc(NC(P(=O)(O)O)P(=O)(O)O)c4ccsc4n3)c2)cc1F", "tgt": "Farnesyl pyrophosphate synthase (Homo sapiens)", "recorded-measurement": 30}
{"structure-smiles-string": "COc1ccc(S(=O)(=O)Nc2cccc(-c3nc(NC(P(=O)(O)O)P(=O)(O)O)c4ccsc4n3)c2)cc1F", "tgt": "Farnesyl pyrophosphate synthase (Homo sapiens)", "recorded-measurement": 40}
{"structure-smiles-string": "O=C(Nc1cccc(-c2nc(NC(P(=O)(O)O)P(=O)(O)O)c3ccsc3n2)c1)c1ccc(C(F)(F)F)cn1", "tgt": "Farnesyl pyrophosphate synthase (Homo sapiens)", "recorded-measurement": 60}
{"structure-smiles-string": "O=C(Nc1cccc(-c2nc(NC(P(=O)(O)O)P(=O)(O)O)c3ccsc3n2)c1)c1ccc(F)cc1", "tgt": "Farnesyl pyrophosphate synthase (Homo sapiens)", "recorded-measurement": 30}
{"structure-smiles-string": "Cc1ccc(NC(=O)c2cccc(-c3nc(NC(P(=O)(O)O)P(=O)(O)O)c4ccsc4n3)c2)cc1F", "tgt": "Farnesyl pyrophosphate synthase (Homo sapiens)", "recorded-measurement": 28}
{"structure-smiles-string": "Cc1ccc(C(=O)Nc2cccc(-c3nc(NC(P(=O)(O)O)P(=O)(O)O)c4ccsc4n3)c2)cc1F", "tgt": "Farnesyl pyrophosphate synthase (Homo sapiens)", "recorded-measurement": 35}
{"structure-smiles-string": "CC(C)O[C@H](C(=O)Nc1cccc(-c2nc(NC(P(=O)(O)O)P(=O)(O)O)c3ccsc3n2)c1)c1ccccc1", "tgt": "Farnesyl pyrophosphate synthase (Homo sapiens)", "recorded-measurement": 35}
{"structure-smiles-string": "O=C(Cc1cccnc1)Nc1cccc(-c2nc(NC(P(=O)(O)O)P(=O)(O)O)c3ccsc3n2)c1", "tgt": "Farnesyl pyrophosphate synthase (Homo sapiens)", "recorded-measurement": 60}

====

test: Metabolic stability in rat microsomes assessed as intrinsic clearance; assay type: ADME, Microsome; conditions: read-out: CLH

{"structure-smiles-string": "COc1ccc(NC(=O)c2cccc(-c3nc(NC(P(=O)(O)O)P(=O)(O)O)c4ccsc4n3)c2)cc1F", "unit-of-measure": "µL/min/mg", "microsomal CLint": 13}

====

Molecular target: Farnesyl pyrophosphate synthase (Homo sapiens)
Sequence (whole entry): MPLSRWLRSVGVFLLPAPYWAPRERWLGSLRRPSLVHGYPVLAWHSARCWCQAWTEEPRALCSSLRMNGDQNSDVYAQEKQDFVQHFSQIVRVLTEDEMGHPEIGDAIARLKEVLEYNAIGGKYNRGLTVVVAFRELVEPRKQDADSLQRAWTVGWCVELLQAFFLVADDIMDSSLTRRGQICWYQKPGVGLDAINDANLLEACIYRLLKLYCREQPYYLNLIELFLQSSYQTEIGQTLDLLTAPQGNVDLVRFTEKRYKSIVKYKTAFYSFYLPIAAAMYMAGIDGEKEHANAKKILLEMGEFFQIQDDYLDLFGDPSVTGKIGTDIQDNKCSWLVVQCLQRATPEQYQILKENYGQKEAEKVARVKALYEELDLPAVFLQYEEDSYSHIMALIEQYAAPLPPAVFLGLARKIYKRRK
Experiment: Inhibition of human FPPS expressed in Escherichia coli BL21 (DE3) at 1 uM preincubated for 10 mins in presence compound relative to control
Parameter threshold = 40%. Response is satisfied when inhibition meets or exceeds it, else not satisfied.

{"structure-smiles-string": "CO[C@@H](C(=O)Nc1cccc(-c2nc(NC(P(=O)(O)O)P(=O)(O)O)c3ccsc3n2)c1)c1ccccc1", "classification": "satisfied"}
{"structure-smiles-string": "COc1ccc(C(=O)Nc2cccc(-c3nc(NC(P(=O)(O)O)P(=O)(O)O)c4ccsc4n3)c2)cc1F", "classification": "satisfied"}
{"structure-smiles-string": "O=C(Cc1ccccc1)Nc1cccc(-c2nc(NC(P(=O)(O)O)P(=O)(O)O)c3ccsc3n2)c1", "classification": "satisfied"}
{"structure-smiles-string": "COc1ccc(NS(=O)(=O)c2cccc(-c3nc(NC(P(=O)(O)O)P(=O)(O)O)c4ccsc4n3)c2)cc1F", "classification": "not satisfied"}
{"structure-smiles-string": "Cc1ccc(NC(=O)c2cccc(-c3nc(NC(P(=O)(O)O)P(=O)(O)O)c4ccsc4n3)c2)cc1Br", "classification": "not satisfied"}
{"structure-smiles-string": "O=C(Nc1ccc(F)cc1)Nc1cccc(-c2nc(NC(P(=O)(O)O)P(=O)(O)O)c3ccsc3n2)c1", "classification": "satisfied"}
